Hey, just so you know, these numbers are from the supplement of paper PMC6757056.

B1: library; a variant is named by its letters at N, in order (parent)
chain: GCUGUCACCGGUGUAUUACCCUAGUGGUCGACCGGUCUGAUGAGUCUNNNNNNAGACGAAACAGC

Variants of: B1
Assay: FACS-Seq fitted mean relative fluorescence mCherry/BFP without ligand (log10 relative fluorescence); ligand: hypoxanthine (xanthine aptamer); higher = higher reporter protein expression
Conditions: HEK293T, ligand present: no
measured.property: FACS-Seq fitted mean (log10)

[[record]]
mutation_label = "CGCGCC"
reported = 0.276

[[record]]
mutation_label = "GGGCGG"
reported = 0.372

[[record]]
mutation_label = "CCGGUU"
reported = 0.42

[[record]]
mutation_label = "CGAAGA"
reported = 0.445

[[record]]
mutation_label = "UCCUAC"
reported = 0.76

[[record]]
mutation_label = "GUCUAG"
reported = 0.584

[[record]]
mutation_label = "GAAAGA"
reported = 0.507

[[record]]
mutation_label = "GAGAAG"
reported = -0.406

[[record]]
mutation_label = "GAUAGA"
reported = 0.371

[[record]]
mutation_label = "GCGGAC"
reported = 0.00746

[[record]]
mutation_label = "GUCGAC"
reported = 0.245

[[record]]
mutation_label = "AAUGAU"
reported = 0.382

[[record]]
mutation_label = "CCACCC"
reported = 0.2

[[record]]
mutation_label = "AAGGGG"
reported = 0.115

[[record]]
mutation_label = "AGACUC"
reported = 0.486

[[record]]
mutation_label = "AUCAUU"
reported = 0.581

[[record]]
mutation_label = "CUAGGA"
reported = 0.799

[[record]]
mutation_label = "GUAUGG"
reported = 0.0518

[[record]]
mutation_label = "GCUGGG"
reported = 0.121

[[record]]
mutation_label = "GGGUUG"
reported = 0.034

[[record]]
mutation_label = "UAGUGA"
reported = 0.153

[[record]]
mutation_label = "UCCACG"
reported = -0.24

